Data credit: ChEMBL document CHEMBL1177723

- test-protocol: Inhibition of SARS coronavirus papain-like protease expressed in Escherichia coli
- Set-up: species or system Severe acute respiratory syndrome-related coronavirus
property: IC50 (µM)
Give the number; µM is assumed, so skip it.

Some molecules with recorded IC50:
record-smiles	readout-unit	IC50
COc1ccccc1CNC(=O)C1CCN([C@H](C)c2cccc3ccccc23)CC1	µM	1.21
C[C@@H](c1cccc2ccccc12)N1CCC(C(=O)NCc2ccc3c(c2)OCO3)CC1	µM	0.56
COc1ccc(CNC(=O)C2CCN(Cc3cccc4ccccc34)CC2)cc1	µM	59.2
O=C(NCc1ccc2c(c1)OCO2)C1CCN(Cc2ccc3ccccc3c2)CC1	µM	100
COc1cccc(CNC(=O)C2CCN([C@H](C)c3cccc4ccccc34)CC2)c1	µM	0.34
COc1ccccc1CNC(=O)C1CCN(Cc2cccc3ccccc23)CC1	µM	116
COc1ccc(CNC(=O)C2CCN([C@H](C)c3cccc4ccccc34)CC2)cc1	µM	0.34
O=C(NCc1ccc2c(c1)OCO2)C1CCN(Cc2cccc3ccccc23)CC1	µM	45

IN: Give IC50 for COc1ccccc1CNC(=O)C1CCN([C@H](C)c2ccc3ccccc3c2)CC1
OUT: 34.8

IN: Give IC50 for COc1cccc(CNC(=O)C2CCN(Cc3cccc4ccccc34)CC2)c1
OUT: 30

IN: Give IC50 for COc1cccc(CNC(=O)C2CCN([C@@H](C)c3ccc4ccccc4c3)CC2)c1
OUT: 5.8

IN: Give IC50 for COc1cccc(CNC(=O)C2CCN([C@H](C)c3ccc4ccccc4c3)CC2)c1
OUT: 13.2
